System: Fusobacterium nucleatum
Experiment: Inhibition of Fusobacterium nucleatum ATCC 25586 recombinant MGL R58A mutant expressed in Escherichia coli BL21 (DE3) assessed as decrease in signal intensity by measuring recovery ratio by 19F NMR based competition assay relative to wild type
Set-up: scale not given: the % may be the effect or the level left

{"columns": ["structure-smiles-string", "target-of-assay", "Activity"],
 "data": [
  ["O=C(O)c1ccc(OC(F)F)nc1", "Fusobacterium nucleatum", "50%"],
  ["O=C(O)c1cn(-c2cccc(F)c2)cn1", "Fusobacterium nucleatum", "80%"],
  ["CC(C)(C)OC(=O)N1CCC(CN)(c2ccc(F)cc2)CC1", "Fusobacterium nucleatum", "50%"],
  ["CC(C)(C)OC(=O)N1CCC(CN)(Cc2ccc(C(F)(F)F)cc2)CC1", "Fusobacterium nucleatum", "50%"],
  ["CC(C)(C)OC(=O)N1CCC(CN)(c2ccccc2F)CC1", "Fusobacterium nucleatum", "50%"],
  ["O=C(O)c1ccc(OCC(F)(F)F)cn1", "Fusobacterium nucleatum", "80%"]
]}
